Data origin, for the record: paper PMC8368196

Test: Berzosertib plasma and urine pharmacokinetics (LC-MS/MS, non-compartmental analysis)
Assay type: in vivo, human
Conditions: human, iv, 60 mg/m2; berzosertib 60 mg/m^2 i.v., lead-in period, berzosertib alone; plasma; mean (% CV); n = 4

[
  {
    "Compound": "CNCc1ccc(-c2cc(-c3nc(-c4ccc(S(=O)(=O)C(C)C)cc4)cnc3N)on2)cc1 [Berzosertib]",
    "clearance / mL/min": 1300
  }
]

###

Experiment: Berzosertib plasma and urine pharmacokinetics (LC-MS/MS, non-compartmental analysis)
Type: in vivo, human
Conditions: human, iv, 72 mg/m2; berzosertib 72 mg/m^2 i.v., lead-in period, berzosertib alone; plasma; mean (% CV); n = 7; read-out: t½ (converted)

[
  {
    "Compound": "CNCc1ccc(-c2cc(-c3nc(-c4ccc(S(=O)(=O)C(C)C)cc4)cnc3N)on2)cc1 [Berzosertib]",
    "half-life, h": 15.2
  }
]

###

Assay: Berzosertib plasma and urine pharmacokinetics (LC-MS/MS, non-compartmental analysis)
Assay type: in vivo, human
Settings: human, iv, 140 mg/m2; berzosertib 140 mg/m^2 i.v., lead-in period, berzosertib alone; plasma; mean (% CV); n = 5

[
  {
    "Compound": "CNCc1ccc(-c2cc(-c3nc(-c4ccc(S(=O)(=O)C(C)C)cc4)cnc3N)on2)cc1 [Berzosertib]",
    "clearance": "1010 mL/min"
  }
]

###

Assay: Berzosertib plasma and urine pharmacokinetics (LC-MS/MS, non-compartmental analysis)
Assay type: in vivo, human
Settings: human, iv, 90 mg/m2; berzosertib 90 mg/m^2 i.v., lead-in period, berzosertib alone; plasma; mean (% CV); n = 6

[
  {
    "Compound": "CNCc1ccc(-c2cc(-c3nc(-c4ccc(S(=O)(=O)C(C)C)cc4)cnc3N)on2)cc1 [Berzosertib]",
    "Cmax, ng/mL": 451
  }
]

###

Test: Berzosertib plasma and urine pharmacokinetics (LC-MS/MS, non-compartmental analysis)
Assay type: in vivo, human
Conditions: human, iv, 36 mg/m2; berzosertib 36 mg/m^2 i.v., lead-in period, berzosertib alone; plasma; mean (% CV); n = 3; read-out: t½ (converted)

[
  {
    "Molecule": "CNCc1ccc(-c2cc(-c3nc(-c4ccc(S(=O)(=O)C(C)C)cc4)cnc3N)on2)cc1 [Berzosertib]",
    "half-life / h": 14.2
  }
]

###

Test: Berzosertib plasma and urine pharmacokinetics (LC-MS/MS, non-compartmental analysis)
Type: in vivo, human
Conditions: human, iv, 140 mg/m2; berzosertib 140 mg/m^2 i.v., lead-in period, berzosertib alone; plasma; mean (% CV); n = 5; read-out: t½ (converted)
Measured property: half-life (h)

[
  {
    "Structure string": "CNCc1ccc(-c2cc(-c3nc(-c4ccc(S(=O)(=O)C(C)C)cc4)cnc3N)on2)cc1",
    "Measured property": "half-life",
    "Unit string": "h",
    "Assay result": 17
  }
]

###

Assay: Berzosertib plasma and urine pharmacokinetics (LC-MS/MS, non-compartmental analysis)
Type: in vivo, human
Details: human, iv, 36 mg/m2; berzosertib 36 mg/m^2 i.v., lead-in period, berzosertib alone; plasma; mean (% CV); n = 3

[
  {
    "Compound": "CNCc1ccc(-c2cc(-c3nc(-c4ccc(S(=O)(=O)C(C)C)cc4)cnc3N)on2)cc1 [Berzosertib]",
    "clearance, mL/min": 1500
  }
]

###

Experiment: Berzosertib plasma and urine pharmacokinetics (LC-MS/MS, non-compartmental analysis)
Type: in vivo, human
Conditions: human, iv, 60 mg/m2; berzosertib 60 mg/m^2 i.v., lead-in period, berzosertib alone; plasma; mean (% CV); n = 4; read-out: Vss

[
  {
    "Molecule": "CNCc1ccc(-c2cc(-c3nc(-c4ccc(S(=O)(=O)C(C)C)cc4)cnc3N)on2)cc1 [Berzosertib]",
    "Vd / L": 1280
  }
]

###

Experiment: Berzosertib plasma and urine pharmacokinetics (LC-MS/MS, non-compartmental analysis)
Assay type: in vivo, human
Conditions: human, iv, 18 mg/m2; berzosertib 18 mg/m^2 i.v., lead-in period, berzosertib alone; plasma; mean (% CV); n = 3
Measured property: clearance (mL/min)

[
  {
    "Structure string": "CNCc1ccc(-c2cc(-c3nc(-c4ccc(S(=O)(=O)C(C)C)cc4)cnc3N)on2)cc1",
    "Measured property": "clearance",
    "Assay result": 1640
  }
]

###

Test: Berzosertib plasma and urine pharmacokinetics (LC-MS/MS, non-compartmental analysis)
Assay type: in vivo, human
Details: human, iv, 90 mg/m2; berzosertib 90 mg/m^2 i.v., lead-in period, berzosertib alone; plasma; mean (% CV); n = 6; read-out: t½ (converted)
Measured property: half-life (h)

[
  {
    "Structure string": "CNCc1ccc(-c2cc(-c3nc(-c4ccc(S(=O)(=O)C(C)C)cc4)cnc3N)on2)cc1",
    "Measured property": "half-life",
    "Assay result": 17.2
  }
]

###

Test: Berzosertib plasma and urine pharmacokinetics (LC-MS/MS, non-compartmental analysis)
Type: in vivo, human
Details: human, iv, 36 mg/m2; berzosertib 36 mg/m^2 i.v., lead-in period, berzosertib alone; plasma; mean (% CV); n = 3
Procedure: PK assessments for berzosertib were conducted during the monotherapy lead-in and during cycles 1 and 2. […] Berzosertib concentrations were quantified using a validated liquid chromatography tandem-mass spectrometry method and plasma PK was characterised by non-compartmental analyses using Phoenix WinNonlin 6.4 (Certara USA Inc, Princeton, NJ, USA). […]
Measured property: AUC(0-inf)

[
  {
    "Structure string": "CNCc1ccc(-c2cc(-c3nc(-c4ccc(S(=O)(=O)C(C)C)cc4)cnc3N)on2)cc1",
    "Measured property": "AUC(0-inf)",
    "Assay result": "913 ng·h/mL"
  }
]
